Kindly supply the reported pIC50 values for the records listed here.
- Assay target: human MER (528-end) (Homo sapiens, UniProt Q12866)
- Construct: human MER (528-end); purchased Camnabio, Japan
- Sequence (Q12866 528-999 limits assumed): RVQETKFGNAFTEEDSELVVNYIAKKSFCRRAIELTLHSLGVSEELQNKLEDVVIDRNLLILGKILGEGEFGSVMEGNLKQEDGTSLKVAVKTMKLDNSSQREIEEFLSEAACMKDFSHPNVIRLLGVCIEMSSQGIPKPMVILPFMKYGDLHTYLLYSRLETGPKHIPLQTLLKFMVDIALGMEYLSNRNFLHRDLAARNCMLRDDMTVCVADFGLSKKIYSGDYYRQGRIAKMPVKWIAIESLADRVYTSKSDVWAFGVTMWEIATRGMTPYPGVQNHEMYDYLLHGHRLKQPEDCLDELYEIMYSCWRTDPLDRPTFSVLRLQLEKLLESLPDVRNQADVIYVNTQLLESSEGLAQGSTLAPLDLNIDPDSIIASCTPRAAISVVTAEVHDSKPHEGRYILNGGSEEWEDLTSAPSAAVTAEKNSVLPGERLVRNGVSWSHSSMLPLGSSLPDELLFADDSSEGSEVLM
- Assay comment: HTRF kinase activity biochemical assay, MER
- Cond: 10 μM ATP, 30 minutes pre-incubation; read-out: HTRF MERTK IC50
pIC50: −log10 of the molar value.

Some solved entries appear below for comparison.
- Compound: "Cn1cc(-c2cnc(N)c(C(=O)N[C@H]3CCC[C@@H]3OCc3ccc(-c4ccc5c(C6CCN(CCO)CC6)cn(C)c5c4)cc3)c2)cn1 [Example 26]"
  Assay target: "human MER (528-end) (Homo sapiens, UniProt Q12866)"
  Assay metric: "pIC50"
  Value reported: "> 8.00"
- Compound: "Cn1ccc(-c2cnc(N)c(C(=O)N[C@H]3CCC[C@@H]3OCc3ccc(-c4ccc5c(c4)CC[C@@H]5N4CCN(CC(O)CO)CC4)cc3)c2)cc1=O (stereo partly drawn) [Example 99]"
  Assay target: "human MER (528-end) (Homo sapiens, UniProt Q12866)"
  Assay metric: "pIC50"
  Value reported: "> 8.00"
- Compound: "CN1CCC(n2ccc3cc(-c4ccc(CO[C@H]5CCC[C@@H]5NC(=O)c5cc(-c6cnn(C)c6)cnc5N)cc4)ccc32)CC1 [Example 6]"
  Assay target: "human MER (528-end) (Homo sapiens, UniProt Q12866)"
  Assay metric: "pIC50"
  Value reported: "> 8.00"
- Compound: "Cn1cc(-c2cnc(N)c(C(=O)N[C@H]3CCC[C@@H]3OCc3ccc(-c4ccc5c(c4)CC(F)(F)C5N4CCN(CCO)CC4)cc3)c2)cn1 (stereo partly drawn) [Example 50]"
  Assay target: "human MER (528-end) (Homo sapiens, UniProt Q12866)"
  Assay metric: "pIC50"
  Value reported: "> 8.00"
- Compound: "Nc1ncc(-c2ccc(F)nc2)cc1C(=O)N[C@H]1CCC[C@@H]1OCc1ccc(-c2ccc3c(c2)CC[C@@H]3N2CCN(CCO)CC2)cc1 [Example 46]"
  Assay target: "human MER (528-end) (Homo sapiens, UniProt Q12866)"
  Assay metric: "pIC50"
  Value reported: "> 8.00"

Please look at the items below and tell me pIC50 for each one, in order.
1. CC1(C)CN(C2CCN(CCO)CC2)c2ccc(-c3ccc(CO[C@H]4CCC[C@@H]4NC(=O)c4cc(-c5ccc(F)nc5)cnc4N)cc3)cc21 [Example 31]
2. Cn1cc(-c2cnc(N)c(C(=O)N[C@H]3CCC[C@@H]3OCc3ccc(-c4cnc5c(c4)CCCN5C4CCN(CCO)CC4)cc3)c2)cn1 [Example 162]

Found:
> 8.00
> 8.00

Please look at the items below and tell me pIC50 for each one, in order.
1. CN1CCN([C@H]2CC(C)(C)c3cc(-c4ccc(CO[C@H]5CCC[C@@H]5NC(=O)c5cc(-c6cccnc6F)cnc5N)cc4)ccc32)CC1 [Example 150]
2. COc1ccc(-c2cnc(N)c(C(=O)N[C@H]3CCC[C@@H]3OCc3ccc(-c4ccc5c(c4)CC[C@@H]5N4CCN(C)CC4)cc3)c2)cn1 [Example 152]
3. CC1(C)CC(N2CCN(CCO)CC2)c2ccc(-c3ccc(CO[C@H]4CCC[C@@H]4NC(=O)c4cc(C(F)(F)F)cnc4N)cc3)cc21 (stereo partly drawn) [Example 130]
4. C=C(C)c1cnc(N)c(C(=O)N[C@H]2CCC[C@@H]2OCc2ccc(-c3ccc4c(c3)C(C)(C)CN4C3CCN(CCO)CC3)cc2)c1 [Example 51]
5. Cn1cc(-c2cnc(N)c(C(=O)N[C@H]3CCC[C@@H]3OCc3ccc(-c4ccc5c(N6CCN(CCO)CC6)coc5c4)cc3)c2)cn1 [Example 95]

Found:
1. > 8.00
2. > 8.00
3. > 8.00
4. > 8.00
5. 7.00 to 8.00

Measured values drawn from patent US20260146035A1 for this set.
